Target: UniProt Q99685
Sequence (Q99685 whole entry): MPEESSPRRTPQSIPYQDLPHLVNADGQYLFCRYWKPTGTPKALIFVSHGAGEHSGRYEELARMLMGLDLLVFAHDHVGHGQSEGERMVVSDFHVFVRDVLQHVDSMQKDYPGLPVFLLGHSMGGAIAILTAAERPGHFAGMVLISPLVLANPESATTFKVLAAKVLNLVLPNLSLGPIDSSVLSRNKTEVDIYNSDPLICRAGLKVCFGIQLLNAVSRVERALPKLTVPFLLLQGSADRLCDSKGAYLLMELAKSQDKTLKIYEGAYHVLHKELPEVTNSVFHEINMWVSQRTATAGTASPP
Assay: In vitro competitive activity-based protein profiling, human proteomes (prefrontal cortex or PC3 cell membrane fractions)
Type: biochemical
Conditions: 1 μM, human proteome; read-out: MAGL % inh. 1 μM (human)
measuredQuantity: inhibition at 1 µM

Per the reported UniProt Q99685 data, "CS(=O)(=O)Nc1ccn(C(=O)N2CCC(Oc3ccc(C(F)(F)F)cc3N3CCCC3)CC2)n1" has inhibition at 1 µM of > 75%

Record "CS(=O)(=O)Nc1ccn(C(=O)N2CCN(Cc3cc4cc(F)ccc4[nH]3)CC2)n1" has UniProt Q99685 inhibition at 1 µM equal to > 75%

Kindly note: UniProt Q99685, "C[C@@H]1CN(Cc2ccc(Cl)c(N3CCC(F)CC3)c2)CCN1C(=O)n1ccc(NS(C)(=O)=O)n1" , inhibition at 1 µM value reported: > 75%

Let me check: "C[C@@H]1CN(C(=O)n2ccc(NS(C)(=O)=O)n2)CCN1Cc1ccc(Cl)c(N2CCCC2)c1" , system UniProt Q99685, measured inhibition at 1 µM is > 75%

Given the compound "CC(=O)Nc1ccn(C(=O)N2CCC3(CCCN3Cc3cc4cc(C(N)=O)ccc4[nH]3)CC2)n1" and test system UniProt Q99685, the measured inhibition at 1 µM is > 75%

The compound C[C@H]1CN(Cc2ccc(C(F)(F)F)c(N3CC4COCC4C3)c2)CCN1C(=O)n1ccc(NS(C)(=O)=O)n1 (stereo partly drawn) , when measured on UniProt Q99685, yielded inhibition at 1 µM of > 75%

Known value: UniProt Q99685 inhibition at 1 µM of the compound "CS(=O)(=O)Nc1ccn(C(=O)N2CCN(Cc3ccc(C(F)(F)F)cc3NCCC(=O)O)CC2)n1" equals 50 to 75%

Record "C[C@H]1CN(C(=O)n2ccc(NS(C)(=O)=O)n2)CCN1Cc1cnc(C(F)(F)F)c(N2CCC(F)CC2)c1" / UniProt Q99685, inhibition at 1 µM recorded as > 75%

Item "CS(=O)(=O)Nc1ccn(C(=O)N2CCN(Cc3ccc(F)c(Oc4ccccc4)c3)CC2)n1" was tested on UniProt Q99685; the reported inhibition at 1 µM is > 75%

Per the reported UniProt Q99685 data, "CC(=O)Nc1ccn(C(=O)N2CCC3(CCN(Cc4ccc(N5CCCC5)cc4C(F)(F)F)C3)CC2)n1" has inhibition at 1 µM of > 75%

Lab note: compound "CS(=O)(=O)Nc1ccn(C(=O)N2CCC3(CCN(Cc4cc(N5CCOCC5)cc(C(F)(F)F)c4)C3)CC2)n1" tested on UniProt Q99685; recorded inhibition at 1 µM was > 75%

Lab note: compound "CS(=O)(=O)Nc1ccn(C(=O)N2CCC(Oc3ccc(C(F)(F)F)c(OC4CCCC4)c3)CC2)n1" tested on UniProt Q99685; recorded inhibition at 1 µM was > 75%

Entry "CC(=O)Nc1ccn(C(=O)N2CCC(N(C)Cc3cc(C(F)(F)F)cc(C4(C(=O)O)CCCC4)c3)CC2)n1" , UniProt Q99685 data, inhibition at 1 µM value: > 75%

Tested on UniProt Q99685, the item "CS(=O)(=O)Nc1ccn(C(=O)N2CCC(Oc3cccc(C(F)(F)F)c3-c3nnco3)CC2)n1" showed inhibition at 1 µM equal to > 75%

Reported UniProt Q99685 inhibition at 1 µM for item "C[C@H]1CN(C(=O)n2ccc(NS(C)(=O)=O)n2)CCN1Cc1ccc(Cl)c(N2CCC(F)(F)CC2)c1" was > 75%
